- Test system: HA of A/Wisconsin/67/05 (H3N2) virus (influenza A virus)
- Protocol details: cell-based or functional assay
Measure name: Neutralization IC50, H3-Wl05 (µg/mL)
Report only the number, with the unit µg/mL understood.

Known results for binders:
| Binder | Measure name | Numeric value |
| --- | --- | --- |
| Antibody 11 (antibody, V domains shown) VH: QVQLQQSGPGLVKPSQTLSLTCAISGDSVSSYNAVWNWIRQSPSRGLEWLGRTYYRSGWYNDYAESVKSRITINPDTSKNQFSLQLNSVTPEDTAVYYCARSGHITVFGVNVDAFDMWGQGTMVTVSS VL: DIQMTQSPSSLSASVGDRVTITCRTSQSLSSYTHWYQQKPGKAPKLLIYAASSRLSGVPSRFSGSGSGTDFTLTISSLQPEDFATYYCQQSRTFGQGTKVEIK | Neutralization IC50, H3-Wl05 | 1.07 |
| Antibody 13 (antibody, V domains shown) VH: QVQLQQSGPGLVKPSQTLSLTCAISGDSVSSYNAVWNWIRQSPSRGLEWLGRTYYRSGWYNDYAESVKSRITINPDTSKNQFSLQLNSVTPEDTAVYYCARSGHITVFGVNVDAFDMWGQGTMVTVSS VL: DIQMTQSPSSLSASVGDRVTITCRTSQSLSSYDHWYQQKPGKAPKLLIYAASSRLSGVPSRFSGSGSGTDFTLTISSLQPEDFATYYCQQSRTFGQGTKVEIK | Neutralization IC50, H3-Wl05 | 1.19 |
| Antibody 15 (antibody, V domains shown) VH: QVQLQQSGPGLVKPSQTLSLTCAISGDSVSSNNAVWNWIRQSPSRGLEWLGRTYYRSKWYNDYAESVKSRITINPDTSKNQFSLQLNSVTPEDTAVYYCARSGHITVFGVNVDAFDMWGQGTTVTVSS VL: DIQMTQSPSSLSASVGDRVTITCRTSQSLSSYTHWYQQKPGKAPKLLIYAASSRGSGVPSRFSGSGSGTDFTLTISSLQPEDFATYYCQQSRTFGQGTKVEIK | Neutralization IC50, H3-Wl05 | 1.3 |

// next item, Neutralization IC50, H3-Wl05 requested
// query Neutralization IC50, H3-Wl05 value for entry Antibody 14 (antibody, V domains shown) VH: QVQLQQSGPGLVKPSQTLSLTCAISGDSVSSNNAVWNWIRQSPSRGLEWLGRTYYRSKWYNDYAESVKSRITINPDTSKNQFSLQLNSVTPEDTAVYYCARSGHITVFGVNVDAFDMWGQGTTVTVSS VL: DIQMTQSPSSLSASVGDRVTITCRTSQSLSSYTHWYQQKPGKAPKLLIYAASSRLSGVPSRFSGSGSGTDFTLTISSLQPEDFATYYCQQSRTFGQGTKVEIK
1.19
